// reported glycan array binding signal (z-score) per item
SYSTEM: Neu5Ac(a2-3)Gal(b1-3)GalNAc(b1-3)Gal(a1-4)Gal(b1-4)Glc
ASSAY_PROCEDURE: glycan array binding signal (z-score within array); higher = stronger binding
RUN_CONDITIONS: glycan notation: IUPAC condensed, linker removed
Many of the other results were omitted from the sample, so the strongest signals are more common in it than they were.

Reference set, count: 2
Would you kindly share the measured glycan array binding signal (z-score) for SJCP3842 (Schistosoma japonicum) (protein) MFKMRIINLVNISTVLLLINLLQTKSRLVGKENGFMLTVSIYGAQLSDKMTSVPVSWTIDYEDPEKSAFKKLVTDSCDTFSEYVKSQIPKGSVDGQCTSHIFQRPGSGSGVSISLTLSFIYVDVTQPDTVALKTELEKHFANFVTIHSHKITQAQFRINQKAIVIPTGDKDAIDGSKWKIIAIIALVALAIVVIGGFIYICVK ?
0.587

Would you kindly share the measured glycan array binding signal (z-score) for rPitB (Streptococcus pneumoniae), A0A0I7U739 (protein) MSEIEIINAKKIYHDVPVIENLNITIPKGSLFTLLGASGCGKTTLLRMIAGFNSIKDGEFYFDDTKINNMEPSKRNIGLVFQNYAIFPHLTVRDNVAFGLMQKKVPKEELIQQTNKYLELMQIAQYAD ?
-0.604

For the next question, use this binder.
Would you kindly share the measured glycan array binding signal (z-score) for RS2L (Ralstonia solanacearum), B5RXL5_RALSO (protein) MAQQGVFTLPANTSFGVTAFANAANTQTIQVLVDNVVKATFTGSGTSDKLLGSQVLNSGSGAIKIQVSVNGKPSDLVSNQTILANKLNFAMVGSEDGTDNDYNDGIAVLNWPLG ?
-0.25
